Target: human GLP-1 receptor (GLP-1R) (human, UniProt P43220 24-463); further: reference of the scale not given here
Assay: cell-based or functional assay
Classification by hGLP1R cAMP EC50 ratio follows these ranges: low end: < 0.2; middle: ≥ 0.2 and < 0.7; high end: ≥ 0.7

Solved cases below.
For this binder, which bin applies? XXEGTFTSDYSIXLDKKAQXAFIEYLIEGGPSSGAPPPS (not fully specified; D-Tyr1, Aib2, αMeL13, (2-[2-(2-Amino-ethoxy)-ethoxy]-acetyl)2-(γ-Glu)-CO-(CH2)18-CO2H on K17, Aib20, C-terminal NH2) [Example 334]
low end

Category of YXEGTXTSDYSILLDEKAQXAFIEYLIEGGPSSG (Aib2, αMeF6, (2-[2-(2-Amino-ethoxy)-ethoxy]-acetyl)2-(γ-Glu)-CO-(CH2)16-CO2H on K17, Aib20, C-terminal NH2) [Example 307] :
high end

Which class holds YXEGTFTSDYSIXLDEKAQXAFIXYLIAGGPSSGAPPPS (not fully specified; Aib2, αMeL13, (2-[2-(2-Amino-ethoxy)-ethoxy]-acetyl)2-(γ-Glu)-CO-(CH2)18-CO2H on K17, Aib20, D-Glu24, C-terminal NH2) [Example 343] ?
middle

Category of XXEGTFTSDYSIXLDXKAQXEFIXYLIAGGPSSGAPPPS (D-Tyr1, Aib2, αMeL13, Orn16, (2-[2-(2-Amino-ethoxy)-ethoxy]-acetyl)2-(γ-Glu)-CO-(CH2)18-CO2H on K17, Aib20, D-Glu24, C-terminal NH2) [Example 354] , please.
low end

Shifting focus to the binder that follows.
GET /class?item= YXEGTFTSDYSIXLDKKAQXAFIEYLIEGGPSSG (Aib2, αMeL13, (2-[2-(2-Amino-ethoxy)-ethoxy]-acetyl)2-(γ-Glu)-CO-(CH2)16-CO2H on K17, Aib20, C-terminal NH2) [Example 300]
middle
